These measurements were taken from patent US5840684A.

# Lookup of reported MIC keyed by entry
Test system: Leuconostoc lactis
Assay: agar dilution MIC, lactic acid bacteria
Type: cell-based
Details: Leuconostoc lactis (mean of 2), brain-heart infusion agar
Your answer is read as mg/L, so omit the unit and give the number.

CNC(CC(C)C)C(=O)NC1C(=O)NC(CC(N)=O)C(=O)NC2C(=O)NC3C(=O)NC(C(=O)NC(C(=O)O)c4cc(O)cc(O)c4-c4cc3ccc4O)C(OC3CC(C)(N)C(O)C(C)O3)c3ccc(c(Cl)c3)Oc3cc2cc(c3OC2OC(CO)C(O)C(O)C2OC2CC(C)(NCc3ccc(-c4ccccc4)cc3)C(O)C(C)O2)Oc2ccc(cc2Cl)C1O (stereo not drawn) [Compound 2, p-phenylbenzyl·A82846B] = 4.0
CNC(CC(C)C)C(=O)NC1C(=O)NC(CC(N)=O)C(=O)NC2C(=O)NC3C(=O)NC(C(=O)NC(C(=O)O)c4cc(O)cc(O)c4-c4cc3ccc4O)C(OC3CC(C)(N)C(O)C(C)O3)c3ccc(c(Cl)c3)Oc3cc2cc(c3OC2OC(CO)C(O)C(O)C2OC2CC(C)(NCc3ccc(C=Cc4ccccc4)cc3)C(O)C(C)O2)Oc2ccc(cc2Cl)C1O (stereo not drawn) = 5.7
CNC(CC(C)C)C(=O)NC1C(=O)NC(CC(N)=O)C(=O)NC2C(=O)NC3C(=O)NC(C(=O)NC(C(=O)O)c4cc(O)cc(O)c4-c4cc3ccc4O)C(OC3CC(C)(N)C(O)C(C)O3)c3ccc(c(Cl)c3)Oc3cc2cc(c3OC2OC(CO)C(O)C(O)C2OC2CC(C)(NCc3ccc(Sc4ccccc4)cc3)C(O)C(C)O2)Oc2ccc(cc2Cl)C1O (stereo not drawn) = 8.0
CNC(CC(C)C)C(=O)NC1C(=O)NC(CC(N)=O)C(=O)NC2C(=O)NC3C(=O)NC(C(=O)NC(C(=O)O)c4cc(O)cc(O)c4-c4cc3ccc4O)C(OC3CC(C)(N)C(O)C(C)O3)c3ccc(c(Cl)c3)Oc3cc2cc(c3OC2OC(CO)C(O)C(O)C2OC2CC(C)(NCc3ccc(SC)cc3)C(O)C(C)O2)Oc2ccc(cc2Cl)C1O (stereo not drawn) = 91
CNC(CC(C)C)C(=O)NC1C(=O)NC(CC(N)=O)C(=O)NC2C(=O)NC3C(=O)NC(C(=O)NC(C(=O)O)c4cc(O)cc(O)c4-c4cc3ccc4O)C(OC3CC(C)(N)C(O)C(C)O3)c3ccc(c(Cl)c3)Oc3cc2cc(c3OC2OC(CO)C(O)C(O)C2OC2CC(C)(NCc3ccc(-c4ccc(-c5ccccc5)cc4)cc3)C(O)C(C)O2)Oc2ccc(cc2Cl)C1O (stereo not drawn) = 16

Here is the next item to consider.
Fill blank: measured MIC of the compound CNC(CC(C)C)C(=O)NC1C(=O)NC(CC(N)=O)C(=O)NC2C(=O)NC3C(=O)NC(C(=O)NC(C(=O)O)c4cc(O)cc(O)c4-c4cc3ccc4O)C(OC3CC(C)(N)C(O)C(C)O3)c3ccc(c(Cl)c3)Oc3cc2cc(c3OC2OC(CO)C(O)C(O)C2OC2CC(C)(NCc3cccc4c3oc3ccccc34)C(O)C(C)O2)Oc2ccc(cc2Cl)C1O (stereo not drawn) is ____. 32

* * *

Tested on: vancomycin-susceptible enterococci
Assay: broth micro-dilution, mean geometric MIC
Type: cell-based, Enterococcus faecium and Enterococcus faecalis
Settings: enterococci, 24-hour incubation
REPORTED_ENDPOINT: mean geometric MIC, Vancomycin Sensitive Strains (µg/mL)
Value expressed in µg/mL; do not type the unit.

CNC(CC(C)C)C(=O)NC1C(=O)NC(CC(N)=O)C(=O)NC2C(=O)NC3C(=O)NC(C(=O)NC(C(=O)O)c4cc(O)cc(O)c4-c4cc3ccc4O)C(OC3CC(C)(N)C(O)C(C)O3)c3ccc(c(Cl)c3)Oc3cc2cc(c3OC2OC(CO)C(O)C(O)C2OC2CC(C)(NCc3ccc(-c4cccs4)cc3)C(O)C(C)O2)Oc2ccc(cc2Cl)C1O (centres unmarked) [Compound 218] = 0.11

API: the following record is the query input.
Field: mean geometric MIC, Vancomycin Sensitive Strains (vancomycin-susceptible enterococci). Entry: CNC(CC(C)C)C(=O)NC1C(=O)NC(CC(N)=O)C(=O)NC2C(=O)NC3C(=O)NC(C(=O)NC(C(=O)O)c4cc(O)cc(O)c4-c4cc3ccc4O)C(OC3CC(C)(N)C(O)C(C)O3)c3ccc(c(Cl)c3)Oc3cc2cc(c3OC2OC(CO)C(O)C(O)C2OC2CC(C)(NCc3cc(C)cc(C)c3)C(O)C(C)O2)Oc2ccc(cc2Cl)C1O (centres unmarked) [Compound 89] 0.44

* * *

Tested on: Staphylococcus aureus SA1199B
Format: cell-based
REPORTED_ENDPOINT: MIC (µg/mL)
Give the value, in units of µg/mL, as a plain number.

CNC(CC(C)C)C(=O)NC1C(=O)NC(CC(N)=O)C(=O)NC2C(=O)NC3C(=O)NC(C(=O)NC(C(=O)O)c4cc(O)cc(O)c4-c4cc3ccc4O)C(OC3CC(C)(N)C(O)C(C)O3)c3ccc(c(Cl)c3)Oc3cc2cc(c3OC2OC(CO)C(O)C(O)C2OC2CC(C)(NCCCCCCCCOc3ccc(Oc4ccccc4)cc3)C(O)C(C)O2)Oc2ccc(cc2Cl)C1O (centres unmarked) = 8

Now for a further compound.
Could you share which MIC value was measured for CNC(CC(C)C)C(=O)NC1C(=O)NC(CC(N)=O)C(=O)NC2C(=O)NC3C(=O)NC(C(=O)NC(C(=O)O)c4cc(O)cc(O)c4-c4cc3ccc4O)C(OC3CC(C)(N)C(O)C(C)O3)c3ccc(c(Cl)c3)Oc3cc2cc(c3OC2OC(CO)C(O)C(O)C2OC2CC(C)(NCc3c4c(cc5ccccc35)CCCC4)C(O)C(C)O2)Oc2ccc(cc2Cl)C1O (centres unmarked) ? 0.5

* * *

compounds and their reported mean geometric MIC, Vancomycin Resistant Strains
System: vancomycin-resistant enterococci
Assay: broth micro-dilution, mean geometric MIC
Type: cell-based, Enterococcus faecium and Enterococcus faecalis
Conditions: enterococci, 24-hour incubation
Just the number please, in µg/mL, no unit attached.

CNC(CC(C)C)C(=O)NC1C(=O)NC(CC(N)=O)C(=O)NC2C(=O)NC3C(=O)NC(C(=O)NC(C(=O)O)c4cc(O)cc(O)c4-c4cc3ccc4O)C(OC3CC(C)(N)C(O)C(C)O3)c3ccc(c(Cl)c3)Oc3cc2cc(c3OC2OC(CO)C(O)C(O)C2OC2CC(C)(NCc3ccc(Oc4ccccc4[N+](=O)[O-])cc3)C(O)C(C)O2)Oc2ccc(cc2Cl)C1O (stereo not drawn) = 2.0

Item CNC(CC(C)C)C(=O)NC1C(=O)NC(CC(N)=O)C(=O)NC2C(=O)NC3C(=O)NC(C(=O)NC(C(=O)O)c4cc(O)cc(O)c4-c4cc3ccc4O)C(OC3CC(C)(N)C(O)C(C)O3)c3ccc(c(Cl)c3)Oc3cc2cc(c3OC2OC(CO)C(O)C(O)C2OC2CC(C)(NCc3cccc(Oc4ccccc4)c3)C(O)C(C)O2)Oc2ccc(cc2Cl)C1O (stereo not drawn) has what recorded mean geometric MIC, Vancomycin Resistant Strains? 0.71

Fill blank: measured mean geometric MIC, Vancomycin Resistant Strains of the compound CNC(CC(C)C)C(=O)NC1C(=O)NC(CC(N)=O)C(=O)NC2C(=O)NC3C(=O)NC(C(=O)NC(C(=O)O)c4cc(O)cc(O)c4-c4cc3ccc4O)C(OC3CC(C)(N)C(O)C(C)O3)c3ccc(c(Cl)c3)Oc3cc2cc(c3OC2OC(CO)C(O)C(O)C2OC2CC(C)(NCCCC3CCCC3)C(O)C(C)O2)Oc2ccc(cc2Cl)C1O (stereo not drawn) is ____. 2.8

* * *

System: vancomycin-susceptible enterococci
Assay: broth micro-dilution, mean geometric MIC
Format: cell-based, Enterococcus faecium and Enterococcus faecalis
Settings: enterococci, 24-hour incubation
Class Criterion met: mean geometric MIC, Vancomycin Sensitive Strains at least 0.7 µg/mL. Class Criterion not met: mean geometric MIC, Vancomycin Sensitive Strains below 0.7 µg/mL.

Could you please find out whether CC(C)CC(C(=O)NC1C(=O)NC(CC(N)=O)C(=O)NC2C(=O)NC3C(=O)NC(C(=O)NC(C(=O)O)c4cc(O)cc(O)c4-c4cc3ccc4O)C(OC3CC(C)(N)C(O)C(C)O3)c3ccc(c(Cl)c3)Oc3cc2cc(c3OC2OC(CO)C(O)C(O)C2OC2CC(C)(NCc3ccc4ccccc4n3)C(O)C(C)O2)Oc2ccc(cc2Cl)C1O)N(C)Cc1ccc2ccccc2n1 (stereo not drawn) has mean geometric MIC, Vancomycin Sensitive Strains that meets 0.7 µg/mL or exceeds it? Criterion met

* * *

System: vancomycin-susceptible enterococci
Experiment: broth micro-dilution, mean geometric MIC
Format: cell-based, Enterococcus faecium and Enterococcus faecalis
Details: enterococci, 24-hour incubation
In plain terms, low mean geometric MIC, Vancomycin Sensitive Strains, meaning strictly below 0.2 µg/mL, gives Y, and everything else gives N.

CNC(CC(C)C)C(=O)NC1C(=O)NC(CC(N)=O)C(=O)NC2C(=O)NC3C(=O)NC(C(=O)NC(C(=O)O)c4cc(O)cc(O)c4-c4cc3ccc4O)C(OC3CC(C)(N)C(O)C(C)O3)c3ccc(c(Cl)c3)Oc3cc2cc(c3OC2OC(CO)C(O)C(O)C2OC2CC(C)(NCCc3ccc(Oc4ccccc4)cc3)C(O)C(C)O2)Oc2ccc(cc2Cl)C1O (stereo not shown) [Compound 33] = Y

Item CNC(CC(C)C)C(=O)NC1C(=O)NC(CC(N)=O)C(=O)NC2C(=O)NC3C(=O)NC(C(=O)NC(C(=O)O)c4cc(O)cc(O)c4-c4cc3ccc4O)C(OC3CC(C)(N)C(O)C(C)O3)c3ccc(c(Cl)c3)Oc3cc2cc(c3OC2OC(CO)C(O)C(O)C2OC2CC(C)(NCc3ccc(-c4ccc([N+](=O)[O-])cc4)cc3)C(O)C(C)O2)Oc2ccc(cc2Cl)C1O (stereo not shown) [Compound 64] : mean geometric MIC, Vancomycin Sensitive Strains beneath 0.2 µg/mL, strictly? Y

A record lists CNC(CC(C)C)C(=O)NC1C(=O)NC(CC(N)=O)C(=O)NC2C(=O)NC3C(=O)NC(C(=O)NC(C(=O)O)c4cc(O)cc(O)c4-c4cc3ccc4O)C(OC3CC(C)(N)C(O)C(C)O3)c3ccc(c(Cl)c3)Oc3cc2cc(c3OC2OC(CO)C(O)C(O)C2OC2CC(C)(NCc3cccc4c3oc3ccccc34)C(O)C(C)O2)Oc2ccc(cc2Cl)C1O (stereo not shown) [Compound 39] . Is its mean geometric MIC, Vancomycin Sensitive Strains below 0.2 µg/mL? Y

Hi there! Is mean geometric MIC, Vancomycin Sensitive Strains for CCCCCCCCCCCCOc1ccc(CNC2(C)CC(OC3C(Oc4c5cc6cc4Oc4ccc(cc4Cl)C(OC4CC(C)(N)C(O)C(C)O4)C4NC(=O)C(NC(=O)C6NC(=O)C(CC(N)=O)NC(=O)C(NC(=O)C(CC(C)C)NC)C(O)c6ccc(c(Cl)c6)O5)c5ccc(O)c(c5)-c5c(O)cc(O)cc5C(C(=O)O)NC4=O)OC(CO)C(O)C3O)OC(C)C2O)cc1 (stereo not shown) [Compound 10] below 0.2 µg/mL, do you know? N

Say whether its mean geometric MIC, Vancomycin Sensitive Strains is strictly beneath 0.2 µg/mL. Entry: CNC(CC(C)C)C(=O)NC1C(=O)NC(CC(N)=O)C(=O)NC2C(=O)NC3C(=O)NC(C(=O)NC(C(=O)O)c4cc(O)cc(O)c4-c4cc3ccc4O)C(OC3CC(C)(N)C(O)C(C)O3)c3ccc(c(Cl)c3)Oc3cc2cc(c3OC2OC(CO)C(O)C(O)C2OC2CC(C)(NCc3ccc(OCCOCCCl)cc3)C(O)C(C)O2)Oc2ccc(cc2Cl)C1O (stereo not shown) [Compound 75] N

Is the reported mean geometric MIC, Vancomycin Sensitive Strains for CNC(CC(C)C)C(=O)NC1C(=O)NC(CC(N)=O)C(=O)NC2C(=O)NC3C(=O)NC(C(=O)NC(C(=O)O)c4cc(O)cc(O)c4-c4cc3ccc4O)C(OC3CC(C)(N)C(O)C(C)O3)c3ccc(c(Cl)c3)Oc3cc2cc(c3OC2OC(CO)C(O)C(O)C2OC2CC(C)(NCC3CCC(C4CCCCC4)CC3)C(O)C(C)O2)Oc2ccc(cc2Cl)C1O (stereo not shown) [Compound 164] strictly below 0.2 µg/mL? Y

Just wondering, is mean geometric MIC, Vancomycin Sensitive Strains of CC(C)CC(C(=O)NC1C(=O)NC(CC(N)=O)C(=O)NC2C(=O)NC3C(=O)NC(C(=O)NC(C(=O)O)c4cc(O)cc(O)c4-c4cc3ccc4O)C(OC3CC(C)(N)C(O)C(C)O3)c3ccc(c(Cl)c3)Oc3cc2cc(c3OC2OC(CO)C(O)C(O)C2OC2CC(C)(NCc3c4c(cc5ccccc35)CCCC4)C(O)C(C)O2)Oc2ccc(cc2Cl)C1O)N(C)Cc1c2c(cc3ccccc13)CCCC2 (stereo not shown) [Compound 262] below 0.2 µg/mL? Y
